Values from paper PMC9814779

- Measured Target: human PPARα ligand-binding domain (Gal4 chimera) (Homo sapiens, UniProt Q07869)
- Construct: coding for the hinge region and LBD of the canonical isoform of the respective nuclear receptor; expressed in transfected cells; host or cells: HEK293T
- Sequence (Q07869 239-466 limits assumed, change not shown): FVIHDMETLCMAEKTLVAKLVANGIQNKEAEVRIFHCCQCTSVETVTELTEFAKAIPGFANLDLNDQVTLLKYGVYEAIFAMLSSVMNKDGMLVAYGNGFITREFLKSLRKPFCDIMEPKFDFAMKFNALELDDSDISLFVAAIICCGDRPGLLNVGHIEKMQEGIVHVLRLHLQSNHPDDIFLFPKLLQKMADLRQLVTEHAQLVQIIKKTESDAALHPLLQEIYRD
- Assay Method Text: Gal4 hybrid reporter gene assay, PPARα
- Format: cell-based
- Conditions: EC50 [μM] PPARα, HEK293T; mean ± SEM, n = 3
Recorded Endpoint: log10 EC50 (log10 of the value in µM)

{"Smiles Structure": "O=C(O)CCc1cccc(NC(=O)c2cc(OC(F)(F)F)ccc2NC(=O)c2ccc3ccccc3c2)c1", "Recorded Number": -0.68}
{"Smiles Structure": "O=C(O)CCc1cccc(NC(=O)c2ccccc2NC(=O)c2ccc(-c3ccsc3)cc2)c1", "Recorded Number": 0.23}
{"Smiles Structure": "O=C(O)CCc1cccc(NC(=O)c2ccccc2NC(=O)c2ccc(-c3ccoc3)cc2)c1", "Recorded Number": 0.20}
{"Smiles Structure": "O=C(O)Cc1ccccc1NC(=O)c1ccccc1NC(=O)c1ccc2ccccc2c1", "Recorded Number": 0.15}
{"Smiles Structure": "O=C(O)CCc1cccc(NC(=O)c2ccccc2NC(=O)c2ccc(-c3ccon3)cc2)c1", "Recorded Number": 0.90}
{"Smiles Structure": "O=C(O)Cc1cccc(NC(=O)c2ccccc2NC(=O)c2ccc3ccccc3c2)c1", "Recorded Number": 0.70}
{"Smiles Structure": "O=C(O)CCc1cccc(NC(=O)c2ccccc2NC(=O)c2ccc(-c3ccco3)cc2)c1", "Recorded Number": 0.26}

----------
- Measured Target: human PPARδ ligand-binding domain (Gal4 chimera) (Homo sapiens)
- Construct: coding for the hinge region and LBD of the canonical isoform of the respective nuclear receptor; expressed in transfected cells; host or cells: HEK293T
- Sequence (Q03181 211-439 limits assumed): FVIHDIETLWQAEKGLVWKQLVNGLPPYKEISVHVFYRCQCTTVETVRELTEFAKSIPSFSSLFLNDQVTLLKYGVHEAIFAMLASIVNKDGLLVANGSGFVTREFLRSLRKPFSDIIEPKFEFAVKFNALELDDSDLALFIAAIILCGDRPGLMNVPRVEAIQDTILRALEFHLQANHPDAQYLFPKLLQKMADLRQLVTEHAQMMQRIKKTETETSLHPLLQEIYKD
- Assay Method Text: Gal4 hybrid reporter gene assay, PPARδ
- Assay type: cell-based
- Design: dose or concentration left out as unconfirmed
- Conditions: read-out: PPAR max. rel. act.
In this section, each of the compounds is paired with its reported Emax.
Recorded Endpoint: Emax

{"Smiles Structure": "Cc1ccc2c(c1)OCC(C(=O)Nc1ccccc1C(=O)Nc1cccc(CCC(=O)O)c1)=C2", "Measured Target": "human PPARδ ligand-binding domain (Gal4 chimera) (Homo sapiens)", "Result": "30%"}
{"Smiles Structure": "Cc1cccc2c1C=C(C(=O)Nc1ccccc1C(=O)Nc1cccc(CCC(=O)O)c1)CO2", "Measured Target": "human PPARδ ligand-binding domain (Gal4 chimera) (Homo sapiens)", "Result": "27%"}
{"Smiles Structure": "COc1cccc2c1OCC(C(=O)Nc1ccccc1C(=O)Nc1cccc(CCC(=O)O)c1)=C2", "Measured Target": "human PPARδ ligand-binding domain (Gal4 chimera) (Homo sapiens)", "Result": "30%"}

----------
- Measured Target: human PPARγ ligand-binding domain (Gal4 chimera) (Homo sapiens)
- Construct: coding for the hinge region and LBD of the canonical isoform of the respective nuclear receptor; expressed in transfected cells; host or cells: HEK293T
- Sequence (P37231 238-503 limits assumed, change not shown): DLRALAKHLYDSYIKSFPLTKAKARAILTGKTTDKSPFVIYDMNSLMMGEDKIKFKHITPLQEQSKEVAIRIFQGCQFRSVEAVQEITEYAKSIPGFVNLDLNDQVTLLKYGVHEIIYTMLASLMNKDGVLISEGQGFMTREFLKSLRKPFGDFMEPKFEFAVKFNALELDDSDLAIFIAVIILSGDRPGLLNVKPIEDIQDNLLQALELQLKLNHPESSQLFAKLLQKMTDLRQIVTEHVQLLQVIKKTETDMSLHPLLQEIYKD
- Assay Method Text: Gal4 hybrid reporter gene assay, PPARγ
- Type: cell-based
- Parameters: dose or concentration left out as unconfirmed
- Conditions: read-out: max. rel. act. PPARγ
In this section, each of the molecules is paired with its reported Emax.

{"Smiles Structure": "O=C(O)CCc1cccc(NC(=O)c2ccccc2NC(=O)c2ccc(-c3ccon3)cc2)c1", "Emax / %": 30}
{"Smiles Structure": "CC(C)(C)c1ccc(C(=O)Nc2cccc(CCC(=O)O)c2)c(NC(=O)c2ccc3ccccc3c2)c1", "Emax / %": 20}
{"Smiles Structure": "CC(C)(Nc1cccc(NC(=O)c2ccccc2NC(=O)c2ccc3ccccc3c2)c1)C(=O)O", "Emax / %": 18}
{"Smiles Structure": "CC(C)(C)c1ccc(C(=O)Nc2cccc(CCC(=O)O)c2)c(NC(=O)c2ccc(-c3ccco3)cc2)c1", "Emax / %": 16}
{"Smiles Structure": "Cc1ccc(NC(=O)c2ccc3ccccc3c2)c(C(=O)Nc2cccc(CCC(=O)O)c2)c1", "Emax / %": 23}
{"Smiles Structure": "Cc1ccc(C(=O)Nc2cccc(CCC(=O)O)c2)c(NC(=O)c2ccc3ccccc3c2)c1", "Emax / %": 21}
{"Smiles Structure": "COc1ccc(C(=O)Nc2cccc(NCC(=O)O)c2)c(NC(=O)c2ccc(-c3ccoc3)cc2)c1", "Emax / %": 9}
{"Smiles Structure": "O=C(O)CCc1cccc(NC(=O)c2cc(OC(F)(F)F)ccc2NC(=O)c2ccc3ccccc3c2)c1", "Emax / %": 18}
{"Smiles Structure": "Cc1cccc(NC(=O)c2ccc3ccccc3c2)c1C(=O)Nc1cccc(CCC(=O)O)c1", "Emax / %": 2.5}
{"Smiles Structure": "O=C(O)CCc1cccc(NC(=O)c2cc3c(cc2NC(=O)c2ccc4ccccc4c2)OCO3)c1", "Emax / %": 15}
{"Smiles Structure": "COc1ccc(NC(=O)c2ccc3ccccc3c2)c(C(=O)Nc2cccc(CCC(=O)O)c2)c1", "Emax / %": 15}
{"Smiles Structure": "O=C(O)CCc1cccc(NC(=O)c2cc(Cl)ccc2NC(=O)c2ccc3ccccc3c2)c1", "Emax / %": 26}
